# System: PC-3
# experimental_protocol: In vitro drug sensitivity test of cells, MTS method
# Type: cell-based
# applied_conditions: PC-3 human prostate cancer cells, culture time 72 h-216 h
# From the text: […]
Structures can show the parent of a compound that is named as a salt.
This listing pairs molecules with measured pIC50.
Answer as the number alone; pIC50 is minus log10 of concentration in mol/L.

INSERT INTO results (molecule, target, recorded_measurement) VALUES
  ('N.N.[Cl][Pt][Cl] [Cisplatin, cis-diaminedichloroplatinum(II)]', 'PC-3', 6.10),
  ('O=C(c1cc(Cc2n[nH]c(=O)c3ccccc23)ccc1F)N1CCN(C(=O)C2CC2)CC1', 'PC-3', 5.21),
  ('CC[C@@]1(O)C(=O)OCc2c1cc1n(c2=O)Cc2cc3c(CN(C)C)c(O)ccc3nc2-1 [Topotecan, Topotecan hydrochloride hydrate]', 'PC-3', 7.70);

response.value for CC(=O)O[C@H]1C(=O)[C@@]2(C)[C@H]([C@H](OC(=O)c3ccccc3)[C@]3(O)C[C@H](OC(=O)[C@H](O)[C@@H](NC(=O)c4ccccc4)c4ccccc4)C(C)=C1C3(C)C)[C@]1(OC(C)=O)CO[C@@H]1C[C@@H]2O (field: pIC50) = 8.37
